assay: Pharmacokinetics of Compound 1 in plasma and brain after IP and PO administration (discrete PK); format: in vivo; conditions: mouse; plasma, IP 10 mg/kg, male C57BL/6 mice; read-out: Terminal t1/2 (converted)
parameter: half-life (h)

entry smiles | parameter | recorded value
Nc1ccc(-c2ccccc2)cc1NC(=O)c1cc2ccc(N3CCNCC3)cc2cn1 | half-life | 4.2

====

experiment: Pharmacokinetics of Compound 1 in plasma and brain after IP and PO administration (discrete PK); type: in vivo; conditions: mouse; brain, IP 3 mg/kg, male C57BL/6 mice; read-out: Terminal t1/2 (converted)

entry smiles | half-life [h]
Nc1ccc(-c2ccccc2)cc1NC(=O)c1cc2ccc(N3CCNCC3)cc2cn1 | 5.87

====

assay: Pharmacokinetics of Compound 1 in plasma and brain after IP and PO administration (discrete PK); format: in vivo; conditions: mouse; brain, IP 3 mg/kg, male C57BL/6 mice
parameter: Cmax (ng/g)

entry smiles | parameter | result unit | recorded value
Nc1ccc(-c2ccccc2)cc1NC(=O)c1cc2ccc(N3CCNCC3)cc2cn1 | Cmax | ng/g | 1490

====

assay: Pharmacokinetics in plasma and brain after IV administration; assay type: in vivo; conditions: mouse; plasma, IV 1 mg/kg, male C57BL/6 mice, PK cassette; read-out: Vss
Readings of Vd for the listed compounds
parameter: Vd (L/kg)

entry smiles | parameter | recorded value
Nc1ccc(-c2ccccc2)cc1NC(=O)c1cc2ccc(N3CCNCC3=O)cc2cn1 | Vd | 2.28
Nc1ccc(-c2ccccc2)cc1NC(=O)c1cc2ccc(N3CCNCC3)cc2cn1 | Vd | 3.47
Nc1ccc(-c2cccs2)cc1NC(=O)c1cc2ccc(N3CCNCC3)cc2cn1 | Vd | 4.31
Nc1ccc(-c2ccncc2)cc1NC(=O)c1cc2ccc(N3CCNCC3)cc2cn1 | Vd | 6.82

====

experiment: Pharmacokinetics of Compound 1 in plasma and brain after IP and PO administration (discrete PK); type: in vivo; settings: mouse; plasma, IP 3 mg/kg, male C57BL/6 mice

entry smiles | result unit | Tmax
Nc1ccc(-c2ccccc2)cc1NC(=O)c1cc2ccc(N3CCNCC3)cc2cn1 | min | 30

====

assay: Pharmacokinetics of Compound 1 in plasma and brain after IP and PO administration (discrete PK); assay type: in vivo; conditions: mouse, brain/plasma; IP 10 mg/kg, male C57BL/6 mice; read-out: AUCbrain/AUCplasma

molecule | Kp
Nc1ccc(-c2ccccc2)cc1NC(=O)c1cc2ccc(N3CCNCC3)cc2cn1 [Compound 1] | 15.9

====

assay: Pharmacokinetics of Compound 1 in plasma and brain after IP and PO administration (discrete PK); format: in vivo; details: mouse; plasma, PO 10 mg/kg, male C57BL/6 mice; read-out: Terminal t1/2 (converted)

entry smiles | result unit | half-life
Nc1ccc(-c2ccccc2)cc1NC(=O)c1cc2ccc(N3CCNCC3)cc2cn1 | h | 4.08

====

experiment: Pharmacokinetics of Compound 1 in plasma and brain after IP and PO administration (discrete PK); assay type: in vivo; details: mouse; plasma, PO 10 mg/kg, male C57BL/6 mice

entry smiles | Cmax [ng/mL]
Nc1ccc(-c2ccccc2)cc1NC(=O)c1cc2ccc(N3CCNCC3)cc2cn1 | 561

====

experiment: Pharmacokinetics of Compound 1 in plasma and brain after IP and PO administration (discrete PK); type: in vivo; settings: mouse; plasma, IP 10 mg/kg, male C57BL/6 mice

entry smiles | result unit | Tmax
Nc1ccc(-c2ccccc2)cc1NC(=O)c1cc2ccc(N3CCNCC3)cc2cn1 | min | 15
